Below: a set of entries, each annotated with reported Km.
assay: ATP-PPi exchange assay (amino acid activation); type: biochemical; settings: nsAA pAzF
# output: number + unit

molecule | test-value
pAzFRS.2: pAcFRS variant E107T, F108Y, Q109M, SEQ ID NO: 13 (protein) MDEFEMIKRNTSEIISEEELREVLKKDEKSALIGFEPSGKIHLGHYLQIKKMIDLQNAGFDIIILLADLHAYLNQKGELDEIRKIGDYNKKVFEAMGLKAKYVYGSTYMLDKDYTLNVYRLALKTTLKRARRSMELIAREDENPKVAEVIYPIMQVNGCHYRGVDVAVGGMEQRKIHMLARELLPKKVVCIHNPVLTGLDGEGKMSSSKGNFIAVDDSPEEIRAKIKKAYCPAGVVEGNPIMEIAKYFLEYPLTIKRPEKFGGDLTVNSYEELESLFKNKELHPMRLKNAVAEELIKILEPIRKRL | 1250 µM
pAzFRS.2.t1: pAcFRS variant E107T, F108Y, Q109M, R257G, SEQ ID NO: 14 (protein) MDEFEMIKRNTSEIISEEELREVLKKDEKSALIGFEPSGKIHLGHYLQIKKMIDLQNAGFDIIILLADLHAYLNQKGELDEIRKIGDYNKKVFEAMGLKAKYVYGSTYMLDKDYTLNVYRLALKTTLKRARRSMELIAREDENPKVAEVIYPIMQVNGCHYRGVDVAVGGMEQRKIHMLARELLPKKVVCIHNPVLTGLDGEGKMSSSKGNFIAVDDSPEEIRAKIKKAYCPAGVVEGNPIMEIAKYFLEYPLTIKGPEKFGGDLTVNSYEELESLFKNKELHPMRLKNAVAEELIKILEPIRKRL | 1400 µM
pAzFRS.1: pAcFRS variant D158V, I159M, L162D, A167Y, SEQ ID NO: 10 (protein) MDEFEMIKRNTSEIISEEELREVLKKDEKSALIGFEPSGKIHLGHYLQIKKMIDLQNAGFDIIILLADLHAYLNQKGELDEIRKIGDYNKKVFEAMGLKAKYVYGSEFQLDKDYTLNVYRLALKTTLKRARRSMELIAREDENPKVAEVIYPIMQVNVMHYDGVDVYVGGMEQRKIHMLARELLPKKVVCIHNPVLTGLDGEGKMSSSKGNFIAVDDSPEEIRAKIKKAYCPAGVVEGNPIMEIAKYFLEYPLTIKRPEKFGGDLTVNSYEELESLFKNKELHPMRLKNAVAEELIKILEPIRKRL | 1180 µM

I have this molecule here, pAcFRS.2: pAcFRS variant L65V, A167D, SEQ ID NO: 7 (protein) MDEFEMIKRNTSEIISEEELREVLKKDEKSALIGFEPSGKIHLGHYLQIKKMIDLQNAGFDIIIVLADLHAYLNQKGELDEIRKIGDYNKKVFEAMGLKAKYVYGSEFQLDKDYTLNVYRLALKTTLKRARRSMELIAREDENPKVAEVIYPIMQVNGCHYRGVDVDVGGMEQRKIHMLARELLPKKVVCIHNPVLTGLDGEGKMSSSKGNFIAVDDSPEEIRAKIKKAYCPAGVVEGNPIMEIAKYFLEYPLTIKRPEKFGGDLTVNSYEELESLFKNKELHPMRLKNAVAEELIKILEPIRKRL , and I need its recorded Km.
6400 µM

From: patent US10501734B2
